# Test system: MMTV promoter
# test.details: MMTV promoter/luciferase reporter assay (high-throughput screen I, control for specificity), M10 cells
# Type: cell-based, mouse
# recorded.conditions: transcriptional activators, Table 2; original high-throughput assay; 6 h incubation
Everything with MMTV fold induction relative to solvent control lower than 0.8 fold is condition not met; everything else, including exactly 0.8 fold, is condition met.

Ask: Could you verify whether the entry N=c1cc2oc3cc(N)ccc3nc-2c2ccccc12 [Chemical 1776] shows MMTV fold induction relative to solvent control of no less than 0.8 fold?
Reply: condition met

Ask: Evaluate Clc1cc(Cl)cc(Br)c1 [Chemical 1255] : MMTV fold induction relative to solvent control at minimum 0.8 fold?
Reply: condition met

Ask: # check: MMTV fold induction relative to solvent control of CN(C)c1ccc2cc3ccc(N(C)C)cc3nc2c1 [Chemical 80] is greater than or equal to 0.8 fold
Reply: condition met

Ask: Confirm if MMTV fold induction relative to solvent control reported for the compound CCOc1ccc2nc3cc(N)ccc3c(N)c2c1 [Chemical 790] is 0.8 fold or above.
Reply: condition not met

Reference source for all entries: patent US5846720A
